# study target: CRTH2 (Homo sapiens)
# Construct: host or cells: CHO-K1
# Sequence (Q9Y5Y4 whole entry): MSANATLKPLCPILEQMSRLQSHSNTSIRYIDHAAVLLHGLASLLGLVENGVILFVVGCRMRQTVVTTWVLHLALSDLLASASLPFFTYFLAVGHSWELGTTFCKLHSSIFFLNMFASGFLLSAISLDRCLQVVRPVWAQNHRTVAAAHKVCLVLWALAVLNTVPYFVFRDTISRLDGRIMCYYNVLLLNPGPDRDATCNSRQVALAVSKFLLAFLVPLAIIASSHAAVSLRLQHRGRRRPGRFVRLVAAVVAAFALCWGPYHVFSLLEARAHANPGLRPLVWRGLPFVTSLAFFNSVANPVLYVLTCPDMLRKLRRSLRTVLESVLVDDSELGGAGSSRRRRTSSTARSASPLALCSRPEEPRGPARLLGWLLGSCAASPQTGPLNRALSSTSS
# measurement notes: MDS Prostanoid CRTH2 Binding Assay (Catalog #268030), radioligand binding
# run parameters: 20 nM of tested compound; ligand 1 nM [3H]PGD2; human recombinant CHO-K1 cells; 2 hours @ 25° C.

molecule	quantity unit	% inhibition of PGD2 binding
CN(C1CCc2c(CC(=O)O)c3ccc(Cl)nc3n2C1)S(=O)(=O)c1ccc(F)cc1 (single isomer, unassigned) [Example 2A]	%	97
CN(C1CCc2c(CC(=O)O)c3cccnc3n2C1)S(=O)(=O)c1ccc(F)cc1 (single isomer, unassigned) [Example 4B]	%	0
CN(C1CCc2c(CC(=O)O)c3cccnc3n2C1)S(=O)(=O)c1ccc(F)cc1 (single isomer, unassigned) [Example 4A]	%	91
CN(C1CCc2c(CC(=O)O)c3ccc(Cl)nc3n2C1)S(=O)(=O)c1ccc(F)cc1 (single isomer, unassigned) [Example 2B]	%	0
